- measured on: T1, ADF peptide complexed with HLA-A*02:01 on T2 cells (human)
- T1 construct: whole, on cells
- assay notes: flow cytometry, peptide-loaded T2 cells;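 also: binding of single-chain Fv antibody constructs, raised in XenoMouse, to peptide-pulsed T2 cells measured by flow cytometry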
outcome measure: Signal/background

| binder | outcome measure | reported value |
| --- | --- | --- |
| 18179-E1 (scFv, scFv in bacterial lysate, detected with anti-Flag M2) scFv: EVQLLESGGGLVQPGGSLRLSCAASGFTFSNAWMSWVRQAPGKGLEWVGRIKGNTYGGTTDYAAPVKGRFTISRDDSKNTLYLQMNSLKTEDTAVYYCTTPSYSGSYYNYFSVMDVWGQGTTVTVSSGGGGSGGGGSGGGGSELVMTQSPSSLSASVGDRVTITCRTSQSISSYLNWYQQKPGRAPKLLIFAASSLQGGVPSRFSGSGSGTDFTLTISSLQPEDFATYYCQQTYSMPFTFGPGTKVDIK | Signal/background | 0.9 |
| 18089-D11 (scFv, scFv in bacterial lysate, detected with anti-Flag M2) scFv: EVQLLESGPVLVKPTQTLTLTCTFSGFSFTTHKMGVDWIRQPPGKALEWLALIYWNDDKRYNPSLQSRLTITKDTSKNQVVLTMTNMDPVDTATYYCAYRRYNWNYENWFDPWGQGTLVTVSSGGGGSGGGGSGGGGSELVMTQSPSSLSASVGDRVTITCRASQSISNYFNWYQQKPGKAPKLLIYAASSLQSGVPSRFSGSGSGTDFTLTISSLQPEDFATYYCQQSYITPFTFGGGTKLEIK | Signal/background | 1.1 |
| 18181-C9 (scFv, scFv in bacterial lysate, detected with anti-Flag M2) scFv: EVQLLESGPGLVKPSQTLSLTCTVSGDSISSNPYYWSWIRQLPGKGLEWIGYISYSGSTFYNPSLKSRVTISVDTSKNQFSLNLTSVTAADTAVYYCARDRLWFGVLNYYYGMDVWGLGTTVTVSSGGGGSGGGGSGGGGSELVLTQSPLSLPVTPGEPASISCRSSQSLLHRNGYNYLDWYLQKPGQSPQLLIYLGSNRASGVPDRFSGSGSGTDFTLKISRVEAEDVGVYYCMQGLQTPFTFGPGTKVEIK | Signal/background | 1 |

All values here come from patent US20220017636A1.
